Assay Protocol: Plasma pharmacokinetics of CR665 after single IV infusion in human subjects
Condition Parameters: male, human, plasma, iv, 0.48 mg/kg, Vz, males, 1 hour IV infusion, geometric mean
Counter-ions that a name gives are not always drawn. Non-standard residues stand in square brackets, D forms with d. Residues, ends and D or L forms follow the SMILES beside them. *: point of attachment. NH(4-picolyl) = c1cc(CN*)ccn1; dNle = CCCC[C@@H](N)C(=O)O
Property Label: Vd (L)
Report the figure in L without appending any unit label.

Task item: Query: Vd; subject: CCCC[C@@H](NC(=O)[C@@H](Cc1ccccc1)NC(=O)[C@H](N)Cc1ccccc1)C(=O)N[C@H](CCCNC(=N)N)C(=O)NCc1ccncc1 [CR665, acetate salt] (H-[dF][dF][dNle][dR]-{NH(4-picolyl)})
Reply: 93.3

* * *

Assay Protocol: Plasma pharmacokinetics of CR665 after single IV infusion in human subjects
Condition Parameters: male, human, plasma, iv, 0.06 mg/kg, Vss, males, 0.06 mg/kg, 1 hour IV infusion, geometric mean
Structures can show the parent of a compound that is named as a salt. Non-standard residues stand in square brackets, D forms with d. Residues, ends and D or L forms follow the SMILES beside them. *: point of attachment. NH(4-picolyl) = c1cc(CN*)ccn1; dNle = CCCC[C@@H](N)C(=O)O
Property Label: Vd (L)
Report the figure in L without appending any unit label.

Task item: Query: Vd; subject: CCCC[C@@H](NC(=O)[C@@H](Cc1ccccc1)NC(=O)[C@H](N)Cc1ccccc1)C(=O)N[C@H](CCCNC(=N)N)C(=O)NCc1ccncc1 [CR665, acetate salt] (H-[dF][dF][dNle][dR]-{NH(4-picolyl)})
Reply: 19

* * *

Assay Protocol: Plasma pharmacokinetics of CR665 after single IV infusion in human subjects
Condition Parameters: male, human, plasma, iv, 0.24 mg/kg, AUC0-∞, males, 1 hour IV infusion, geometric mean
Counter-ions that a name gives are not always drawn. Non-standard residues stand in square brackets, D forms with d. Residues, ends and D or L forms follow the SMILES beside them. *: point of attachment. NH(4-picolyl) = c1cc(CN*)ccn1; dNle = CCCC[C@@H](N)C(=O)O
Property Label: AUC(0-inf) (ng·h/mL)
Report the figure in ng·h/mL without appending any unit label.

Task item: Query: AUC(0-inf); subject: CCCC[C@@H](NC(=O)[C@@H](Cc1ccccc1)NC(=O)[C@H](N)Cc1ccccc1)C(=O)N[C@H](CCCNC(=N)N)C(=O)NCc1ccncc1 [CR665, acetate salt] (H-[dF][dF][dNle][dR]-{NH(4-picolyl)})
Reply: 478

* * *

Assay Protocol: Plasma pharmacokinetics of CR665 after single IV infusion in human subjects
Condition Parameters: male, human, plasma, iv, 0.48 mg/kg, AUC0-t, males, 1 hour IV infusion, geometric mean
Counter-ions that a name gives are not always drawn. Non-standard residues stand in square brackets, D forms with d. Residues, ends and D or L forms follow the SMILES beside them. *: point of attachment. NH(4-picolyl) = c1cc(CN*)ccn1; dNle = CCCC[C@@H](N)C(=O)O
Property Label: AUC(0-t)
Field note: include the unit after the figure.

Task item: Query: AUC(0-t); subject: CCCC[C@@H](NC(=O)[C@@H](Cc1ccccc1)NC(=O)[C@H](N)Cc1ccccc1)C(=O)N[C@H](CCCNC(=N)N)C(=O)NCc1ccncc1 [CR665, acetate salt] (H-[dF][dF][dNle][dR]-{NH(4-picolyl)})
Reply: 1120 ng·h/mL
